Biological target: T1, human IL-36γ, truncated (human, UniProt Q9NZH8 18-169)
T1 sequence: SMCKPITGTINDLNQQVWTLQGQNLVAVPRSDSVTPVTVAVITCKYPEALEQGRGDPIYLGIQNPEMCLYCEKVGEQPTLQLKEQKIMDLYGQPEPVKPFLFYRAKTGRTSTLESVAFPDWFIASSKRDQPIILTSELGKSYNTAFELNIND
Test: cell-based or functional assay
RECORDED ENDPOINT: IC50 of IL-8 secretion (AlphaLISA), HaCaT, 10 nM human IL-36γ

>  <BINDER>
144L249B LV7a HV11 (antibody, V domains shown, Humanized) VH: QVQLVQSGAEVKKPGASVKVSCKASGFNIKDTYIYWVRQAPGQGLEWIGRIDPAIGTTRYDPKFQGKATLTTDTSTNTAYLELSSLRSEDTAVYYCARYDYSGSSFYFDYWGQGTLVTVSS VL: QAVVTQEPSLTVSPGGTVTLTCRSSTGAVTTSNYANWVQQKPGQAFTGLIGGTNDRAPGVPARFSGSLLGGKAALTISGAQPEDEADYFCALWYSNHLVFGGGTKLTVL

>  <RECORDED RESULT>
25.8 nM

$$$$
>  <BINDER>
144L249B LV9 HV10c (antibody, V domains shown, Humanized) VH: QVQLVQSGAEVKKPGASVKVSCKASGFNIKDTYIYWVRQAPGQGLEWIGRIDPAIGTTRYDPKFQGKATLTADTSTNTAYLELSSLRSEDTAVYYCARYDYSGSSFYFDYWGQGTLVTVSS VL: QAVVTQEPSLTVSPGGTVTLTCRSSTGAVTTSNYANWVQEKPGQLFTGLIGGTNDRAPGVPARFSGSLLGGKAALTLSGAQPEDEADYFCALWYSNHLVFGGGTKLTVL

>  <RECORDED RESULT>
11.5 nM

$$$$
>  <BINDER>
144L249B LV9 HV11 (antibody, V domains shown, Humanized) VH: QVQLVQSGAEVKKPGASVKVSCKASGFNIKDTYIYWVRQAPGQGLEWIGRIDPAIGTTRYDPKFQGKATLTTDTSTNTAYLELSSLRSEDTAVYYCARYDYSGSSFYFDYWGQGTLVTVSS VL: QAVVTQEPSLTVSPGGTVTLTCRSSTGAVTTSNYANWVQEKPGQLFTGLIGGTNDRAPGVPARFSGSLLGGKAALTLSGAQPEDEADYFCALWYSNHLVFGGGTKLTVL

>  <RECORDED RESULT>
16.5 nM

$$$$

Below: the item to evaluate.
The binder identified as 144L249B LV9 HV10b (antibody, V domains shown, Humanized) VH: QVQLVQSGAEVKKPGASVKVSCKASGFNIKDTYIYWVRQAPGQGLEWIGRIDPAIGTTRYDPKFQGKATLTTDTSTSTAYLELSSLRSEDTAVYYCARYDYSGSSFYFDYWGQGTLVTVSS VL: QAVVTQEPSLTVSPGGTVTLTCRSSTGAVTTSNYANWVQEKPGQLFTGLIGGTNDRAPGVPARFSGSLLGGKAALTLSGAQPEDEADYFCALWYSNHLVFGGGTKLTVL registered its IC50 of IL-8 secretion (AlphaLISA), HaCaT, 10 nM human IL-36γ at 20.7 nM

These entries and their values trace back to patent US20210380675A1.
